Target: RSV prefusion F (preF), subtype B (respiratory syncytial virus, subtype B)
Assay: BLI, IgG
readoutLabel: Kd (nM)
Just the number in nM, nothing appended.

binder	numericValue
ADI-21038 (antibody, V domains shown) VH: QVQLVQSGAEVKKPGESLKISCQGFGFSFTSYWIGWVRQTPGKGLEWMGTIYPGDSETRKSPSIQGQVTFSADRSISTAYLQWSGLTASDTAVYYCARLKGGWGTTMAGIRDYFYYGLDVWGQGTTVTVSS VL: EIVLTQSPGTLSLSPGERATLSCRASQSVSSSYLAWYQQKPGQAPRLLIYGASSRATGIPDRFTGSGSGTDFTLTISRLEPEDFAVYYCQQYATSLGGFTFGPGTKVDIK	16
ADI-21059 (antibody, V domains shown) VH: QVQLVQSGAEVKRPGDSLKISCKGSGYSFTTSWIGWVRQVPGKGLEWMGIIYPGDSNTVYGPSLQGQVTISADKSTNTAYLQWSSLKASDTAMYYCARRDGGTDYLSDAFDIWGQGTFVTVSS VL: DIQMTQSPSSLSASVGDRVTITCRTSQNIVIYLNWYQQKPGKAPKLLIFAASSLPSGVPSRFSGSGSGTDFTLTISSLQPEDVATYYCQQSYNTPGTFGQGTKVDIK	9.43
ADI-14414 (antibody, V domains shown, also called Ab 80) VH: QVQLVQSGAEVKKPGSSMKVSCKASGGSFSSYGISWLRQAPGQAPEWMGGIIPIFGTINYAQKFQGRITISADESTSTVYMELSSLRIEDTAVYYCARDGRTSPRYYGWDVWGQGTTVTVSS VL: DIRLTQSPATLSLSPGDRATLSCRASQSLYTYLSWYQQKPGQAPRLLIYDASNRATGIPARFSGSGSGTDFTLTISSLEPEDFAVYYCHYRSNWPPCTFGGGTKVDIK	3.07

Lookup: Endpoint output: Kd of ADI-20966 (antibody, V domains shown) VH: EVQLLESGGGLGKPGGSLRLSCAASGFKLSSYYMHWVRQAPGKGPEWVSSISASSSYINYADSVRGRFTVSRDNAKNSLFLQMNSLRVDDTAIYYCARGAPLTNFGMVLDSWGQGTLVTVSS VL: QSVLTQPPSVSGAPGQRVTISCTGSGSNIGAGYDVHWYQQVPGRVPKLLIYANNNRPSGVPDRFSGSKSGTSASLAITGLQADDEADYYCQSYDRSLNVVFGGGTKLTVL . Value?
Found: 0.862

Lookup: Endpoint output: Kd of ADI-14589 (antibody, V domains shown) VH: QITLKESGPVLVKPSETLTLTCTVSGFSLSNAKMGVSWIRQPPGKALEWLAHIFSNDEKSYNTSLKNRLTISKDTSKSQVVLTMTNMDTVDTATYYCARINYYDSSGYYLANFDYWGQGTLVTVSS VL: NIRLTQSPSSLSASVGDRVTITCRASQRIASYLNWYQQKPGHAPKLLIHAASSLQSGVPSRFSGSGSGTDFTLTINSLLPEDFATYYCQQSYSSPPHSSPPLTFGGGTKVEIK . Value?
Found: 28.2
